- System: Vaccinia virus
- test-method-notes: Antiviral activity against Vaccinia virus LIVP harboring GFP infected in African green monkey CV1 cells assessed as virus titer at 1 uM preincubated with cells for 4 hrs followed by viral infection measured after 48 hrs by gentian violet staining-based microscopic analysis (reference value: 3.3 +/- 0.1 log10PFU/ml)
- Format: functional, Orthopoxvirus vaccinia
observation-type: Activity (log10PFU)

>>> test_value("COc1ccc2c(c1)c1nc3ccccc3nc1n2CCN1CCCCC1")
3.1
>>> test_value("CN(C)CCCNCCn1c2ccccc2c2nc3ccccc3nc21")
3.5
>>> test_value("CCN(CC)CCCNCCn1c2ccccc2c2nc3ccccc3nc21")
2.8
>>> test_value("c1ccc2nc3c(nc2c1)c1ccccc1n3CCNCCCN1CCOCC1")
3.6
>>> test_value("CN(C)CCCNC(=O)Cn1c2ccccc2c2nc3ccccc3nc21")
3.4
